Origin of values: patent US7727980B2

# Tested target: human AR (Homo sapiens)
# Protocol notes: Co-transfection assay, AR agonist activity, CV-1 cells
# Format: cell-based
# Parameters: expressed in transfected cells; host or cells: CV-1 cells (African green monkey kidney fibroblasts), transient transfection with pRShAR
# Run conditions: AR Agonist CV-1 Cells Potency (nM), agonist potency or EC50
Listing of entries alongside the reported EC50.

- Molecule: "C=CCc1c(C)[nH]c2c1ccc1[nH]c(=O)cc(C(F)(F)F)c12"
  EC50 [nM]: 138
- Molecule: "CC1c2c(ccc3[nH]c(=O)cc(C(F)(F)F)c23)N(CC(F)(F)F)C1C (racemic)"
  EC50 [nM]: 1.4
- Molecule: "CCN1c2ccc3[nH]c(=O)cc(C(F)(F)F)c3c2C2CCCC21 (racemic)"
  EC50 [nM]: 43
- Molecule: "O=c1cc(C(F)(F)F)c2c(ccc3c2c2ccccc2n3CC(F)(F)F)[nH]1"
  EC50 [nM]: 7.9

---

# Tested target: human AR (Homo sapiens)
# Protocol notes: Co-transfection assay, AR antagonist activity in presence of DHT, CV-1 cells
# Type: cell-based
# Parameters: expressed in transfected cells; host or cells: CV-1 cells (African green monkey kidney fibroblasts), transient transfection with pRShAR
# Run conditions: CV-1 cells; percent maximal inhibition, DHT at its EC50 concentration
Listing of entries alongside the reported AR Antagonist CV-1 Cells Efficacy (%).

- Molecule: "O=c1cc(C(F)(F)F)c2cc3c(cc2[nH]1)c1c(n3CC(F)(F)F)CCC1 [Compound 159]"
  AR Antagonist CV-1 Cells Efficacy (%): 66
- Molecule: "O=c1cc(C(F)(F)F)c2c3c(ccc2[nH]1)N(CC(F)(F)F)C1CCCC31 (single isomer, unassigned; (+)) [Compound 178]"
  AR Antagonist CV-1 Cells Efficacy (%): 48

---

# Tested target: human AR (Homo sapiens, UniProt P10275)
# Protocol notes: Co-transfection assay, AR antagonist activity in presence of DHT, CV-1 cells
# Assay type: cell-based
# Set-up: expressed in transfected cells; host or cells: CV-1 cells (African green monkey kidney fibroblasts), transient transfection with pRShAR
# Run conditions: AR Antagonist CV-1 Cells Potency (nM), CV-1 cells; antagonist potency or IC50, DHT at its EC50 concentration
Listing of entries alongside the reported IC50.
Experimental readout: IC50

- Molecule: "CCN1c2ccc3[nH]c(=O)cc(C(F)(F)F)c3c2CCC1(C)C"
  Endpoint result: "> 10000 nM"
- Molecule: "O=c1cc(C(F)(F)F)c2cc3c(cc2[nH]1)C1CCCC1N3CC(F)(F)F (racemic)"
  Endpoint result: "> 10000 nM"
- Molecule: "CCN1c2cc3c(C(F)(F)F)cc(=O)[nH]c3cc2C2CCCC21 (racemic)"
  Endpoint result: "> 10000 nM"
- Molecule: "CCCN1c2ccc3[nH]c(=O)cc(C(F)(F)F)c3c2C2CCCC21 (racemic)"
  Endpoint result: "> 10000 nM"
- Molecule: "CCC1(CC)CCc2c(ccc3[nH]c(=O)cc(C(F)(F)F)c23)N1"
  Endpoint result: "> 10000 nM"
- Molecule: "CCc1c(C)c2cc3[nH]c(=O)cc(C(F)(F)F)c3cc2n1CC(F)(F)F"
  Endpoint result: "8.2 nM"
- Molecule: "O=c1cc(C(F)(F)F)c2cc3c(cc2[nH]1)CCCN3CC1CC1"
  Endpoint result: "> 10000 nM"
- Molecule: "CCC1=CC(C)(C)Oc2cc3oc(=O)cc(C(F)(F)F)c3cc21"
  Endpoint result: "25 nM"

---

Listing of entries alongside the reported AR Agonist CV-1 Cells Efficacy (%).
# Tested target: UniProt:P10275
# Protocol notes: Co-transfection assay, AR agonist activity, CV-1 cells
# Format: cell-based
# Design: expressed in transfected cells; host or cells: CV-1 cells (African green monkey kidney fibroblasts), transient transfection with pRShAR
# Run conditions: percent maximal response relative to reference agonist DHT
Experimental readout: AR Agonist CV-1 Cells Efficacy (%)

- Compound: "O=c1cc(C(F)(F)F)c2cc3c(cc2[nH]1)C1CCCC1N3CC(F)(F)F (racemic)"
  Experimental readout: "AR Agonist CV-1 Cells Efficacy (%)"
  Endpoint result: 117
- Compound: "O=c1cc(C(F)(F)F)c2c3c(ccc2[nH]1)N(Cc1ccsc1)C1CCCC31 (racemic)"
  Experimental readout: "AR Agonist CV-1 Cells Efficacy (%)"
  Endpoint result: 66
- Compound: "CC1CCc2cc3[nH]c(=O)cc(C(F)(F)F)c3cc2N1CC(F)(F)F (stereo not shown)"
  Experimental readout: "AR Agonist CV-1 Cells Efficacy (%)"
  Endpoint result: 66
- Compound: "O=c1cc(C(F)(F)F)c2c3c(ccc2[nH]1)N(CC(F)(F)Cl)C1CCCC31 (racemic)"
  Experimental readout: "AR Agonist CV-1 Cells Efficacy (%)"
  Endpoint result: 79
- Compound: "CC1(C)C=Cc2c(ccc3[nH]c(=O)cc(C(F)(F)F)c23)N1"
  Experimental readout: "AR Agonist CV-1 Cells Efficacy (%)"
  Endpoint result: 108
- Compound: "O=c1cc(C(F)(F)F)c2c3c(ccc2[nH]1)N(CC(F)(F)F)C1CCCC31 (racemic) [Compound 119]"
  Experimental readout: "AR Agonist CV-1 Cells Efficacy (%)"
  Endpoint result: 94
- Compound: "CC1(C)CCc2c(ccc3[nH]c(=O)cc(C(F)(F)F)c23)N1"
  Experimental readout: "AR Agonist CV-1 Cells Efficacy (%)"
  Endpoint result: 78
- Compound: "O=c1cc(C(F)(F)F)c2c3c(ccc2[nH]1)N(CC(F)(F)F)CC3c1ccccc1 (racemic)"
  Experimental readout: "AR Agonist CV-1 Cells Efficacy (%)"
  Endpoint result: 46
- Compound: "CCC1(CC)CCc2c(ccc3[nH]c(=O)cc(C(F)(F)F)c23)N1"
  Experimental readout: "AR Agonist CV-1 Cells Efficacy (%)"
  Endpoint result: 57
- Compound: "CC1C(c2ccc(N(C)C)cc2)c2c(ccc3[nH]c(=O)cc(C(F)(F)F)c23)N1CC(F)(F)F (racemic)"
  Experimental readout: "AR Agonist CV-1 Cells Efficacy (%)"
  Endpoint result: 77
- Compound: "O=c1cc(C(F)(F)F)c2c3c(ccc2[nH]1)N(CC(F)(F)F)C1CCCC31 (single isomer, unassigned; (+)) [Compound 178]"
  Experimental readout: "AR Agonist CV-1 Cells Efficacy (%)"
  Endpoint result: 24
- Compound: "CCCN1CCCc2cc3[nH]c(=O)cc(C(F)(F)F)c3cc21"
  Experimental readout: "AR Agonist CV-1 Cells Efficacy (%)"
  Endpoint result: 70

---

Listing of entries alongside the reported AR Antagonist CV-1 Cells Efficacy (%).
# Tested target: human AR (Homo sapiens, UniProt P10275)
# Sequence (P10275 1-920): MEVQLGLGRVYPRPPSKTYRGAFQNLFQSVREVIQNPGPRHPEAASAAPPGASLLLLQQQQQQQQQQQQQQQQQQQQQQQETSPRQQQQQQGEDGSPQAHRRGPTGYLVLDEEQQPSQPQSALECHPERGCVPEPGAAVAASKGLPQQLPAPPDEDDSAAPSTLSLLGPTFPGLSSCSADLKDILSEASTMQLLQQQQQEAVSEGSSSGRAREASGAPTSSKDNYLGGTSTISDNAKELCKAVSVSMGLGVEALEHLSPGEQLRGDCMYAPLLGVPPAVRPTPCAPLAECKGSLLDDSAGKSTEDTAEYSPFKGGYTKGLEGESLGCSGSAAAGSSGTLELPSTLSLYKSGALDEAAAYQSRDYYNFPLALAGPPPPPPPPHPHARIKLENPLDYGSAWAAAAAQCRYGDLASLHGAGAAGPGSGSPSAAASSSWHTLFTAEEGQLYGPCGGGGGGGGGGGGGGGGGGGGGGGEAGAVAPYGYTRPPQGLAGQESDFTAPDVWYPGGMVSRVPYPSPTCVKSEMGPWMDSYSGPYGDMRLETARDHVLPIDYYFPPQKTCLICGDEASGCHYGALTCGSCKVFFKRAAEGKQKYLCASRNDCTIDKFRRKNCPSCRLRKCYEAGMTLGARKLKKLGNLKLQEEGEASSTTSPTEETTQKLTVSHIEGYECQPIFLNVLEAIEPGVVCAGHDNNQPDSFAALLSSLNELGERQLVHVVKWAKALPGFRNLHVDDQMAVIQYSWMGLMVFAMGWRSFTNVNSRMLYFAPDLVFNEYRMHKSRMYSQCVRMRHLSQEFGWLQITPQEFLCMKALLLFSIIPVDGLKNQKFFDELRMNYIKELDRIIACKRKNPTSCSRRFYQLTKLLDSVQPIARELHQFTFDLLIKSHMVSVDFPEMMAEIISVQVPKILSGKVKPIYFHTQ
# Protocol notes: Co-transfection assay, AR antagonist activity in presence of DHT, CV-1 cells
# Type: cell-based
# Parameters: expressed in transfected cells; host or cells: CV-1 cells (African green monkey kidney fibroblasts), transient transfection with pRShAR
# Run conditions: CV-1 cells; percent maximal inhibition, DHT at its EC50 concentration

- Compound: "CC1CC(C)(C)N(CC(F)(F)F)c2ccc3[nH]c(=O)ccc3c21 (centres unmarked)"
  AR Antagonist CV-1 Cells Efficacy (%): "81%"
- Compound: "CC1(C)CCc2c(ccc3[nH]c(=O)cc(C(F)(F)F)c23)N1"
  AR Antagonist CV-1 Cells Efficacy (%): "50%"
- Compound: "CCC1CCOc2cc3c(cc21)c(C(F)(F)F)cc(=O)n3C (racemic)"
  AR Antagonist CV-1 Cells Efficacy (%): "67%"
